Form field: IC50 (one value per entry).
System: Ba/F3 parental
Assay Overview: Ba/F3 cell viability (MTS), parental cells
Type: cell-based, murine
Condition: Mus musculus, BaF3, Table 3, 72 hours
Reply numerically in µM, unit not repeated.

Example compounds with recorded IC50:
[[record]]
record_smiles = "C=CC(=O)Nc1cc(Nc2ncc(C#N)c(NC34CC(CN(C)C)(C3)C4)n2)c(OC)cc1N1CCOCC1"
target = "Ba/F3 parental"
numeric_readout = 8.05

[[record]]
record_smiles = "CCC(=O)Nc1cc(Nc2ncc(C#N)c(NC34CC(C3)C4)n2)c(OC)cc1N(C)CCN(C)C"
target = "Ba/F3 parental"
numeric_readout = 10.5

[[record]]
record_smiles = "C=CC(=O)Nc1cc(Nc2ncc(C#N)c(N3CCC3)n2)c(OC)cc1N(C)CCN(C)C"
target = "Ba/F3 parental"
numeric_readout = 6.04

[[record]]
record_smiles = "C=CC(=O)Nc1cc(Nc2ncc(C#N)c(NC3CCC3)n2)c(OC)cc1N(C)CCN(C)C"
target = "Ba/F3 parental"
numeric_readout = 5.93


Checklist item: IC50 tested on Ba/F3 parental, entry C=CC(=O)Nc1cc(Nc2nccc(NC34CC(C3)C4)n2)c(OC)cc1N(C)CCN(C)C , value?
2.3

Checklist item: IC50 tested on Ba/F3 parental, entry C=CC(=O)Nc1cc(Nc2ncc(C#N)c(Nc3cccc(C)c3)n2)c(OC)cc1N(C)CCN(C)C , value?
7.38

====

Test system: Ba/F3 parental
Assay Overview: Ba/F3 cell viability (MTS), parental cells
Assay type: cell-based, murine
Condition: Mus musculus, BaF3, Table 3, 72 hours
Form field: pIC50 (one value per entry).
Friendly reminder that pIC50 comes from taking -log10 of the concentration in mol/L.

Example compounds with recorded pIC50:
[[record]]
compound = "C=CC(=O)Nc1cc(Nc2ncc(C#N)c(NC34CC(C(F)F)(C3)C4)n2)c(OC)cc1N(C)CCN(C)C [Compound 015]"
numeric_readout = 5.20

[[record]]
compound = "C=CC(=O)Nc1cc(Nc2ncc(C#N)c(Nc3ccc(Oc4ccn5ccnc5c4)c(C)c3)n2)c(OC)cc1N1CC(N(C)C)C1 [Compound 030]"
numeric_readout = 5.00

[[record]]
compound = "C=CC(=O)Nc1cc(Nc2ncc(C3CC3)c(NC34CC(C3)C4)n2)c(OC)cc1N(C)CCN(C)C [Compound 019]"
numeric_readout = 5.37

[[record]]
compound = "C=CC(=O)Nc1cc(Nc2ncc(C#N)c(NC34CC(C3)C4)n2)c(OC)cc1N(C)CCN(C)C [Compound 013]"
numeric_readout = 5.34

[[record]]
compound = "C=CC(=O)Nc1cc(Nc2ncc(C#N)c(Nc3ccc(Oc4ccn5ccnc5c4)c(C)c3)n2)c(OC)cc1N(C)C [Compound 029]"
numeric_readout = 5.06


// lookup pIC50 for C=CC(=O)Nc1cc(Nc2ncc(C#N)c(NC3C(C)C4CCC3C4(C)C)n2)c(OC)cc1N(C)CCN(C)C (stereo not shown) [Compound 016]
5.36

// lookup pIC50 for C=CC(=O)Nc1cc(Nc2ncc(OC)c(NC34CC(C3)C4)n2)c(OC)cc1N(C)CCN(C)C [Compound 018]
5.04
